measurement.target: PHF (paired helical filaments) isolated from the brain of an Alzheimer's disease patient (Homo sapiens, UniProt P10636)
Sequence (P10636 623-708 limits assumed): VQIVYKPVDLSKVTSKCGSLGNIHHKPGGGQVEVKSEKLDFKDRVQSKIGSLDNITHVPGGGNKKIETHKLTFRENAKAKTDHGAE
assay.explanation: Competitive binding assay: displacement of primulin fluorescence from PHFs
measurement.context: concentration that reduces the signal of 1 μM primulin to 50% of control; relative affinity; read-out: P50
readout.kind: IC50

Consider the following illustrative entries.
Cc1ccc2nc(-c3ccc(/C=C/c4cccc(O)c4)cc3)sc2c1	~1200 nM
COc1cc(NC(=O)c2ccc(F)c([N+](=O)[O-])c2)ccc1-c1nc2ccccc2s1	> 1000 nM
COc1ccc(C(=O)Nc2ccc(-c3cn4cc(C)ccc4n3)cc2)cc1C(F)(F)F	> 1000 nM
COc1c(F)cc(C(=O)Nc2ccc(-c3cn4cc(C)ccc4n3)cc2)cc1F	~1000 nM

Q. Need IC50, item "O=C(Nc1ccc(-c2nc3ccc(O)cc3s2)c(C(F)(F)F)c1)c1ccc(O)cc1"
A. > 1000 nM

Q. And the next one, "Cc1ccc2nc(-c3ccc(NC(=O)c4cccc(F)n4)cc3)cn2c1" ?
A. > 1000 nM

// data source = patent US8895313B2
